In this section we review reported IC50 values for a set of compounds.
Target: αvβ3 integrin (Homo sapiens, UniProt P05106+P06756)
Sequence (P06756 31-889 limits assumed): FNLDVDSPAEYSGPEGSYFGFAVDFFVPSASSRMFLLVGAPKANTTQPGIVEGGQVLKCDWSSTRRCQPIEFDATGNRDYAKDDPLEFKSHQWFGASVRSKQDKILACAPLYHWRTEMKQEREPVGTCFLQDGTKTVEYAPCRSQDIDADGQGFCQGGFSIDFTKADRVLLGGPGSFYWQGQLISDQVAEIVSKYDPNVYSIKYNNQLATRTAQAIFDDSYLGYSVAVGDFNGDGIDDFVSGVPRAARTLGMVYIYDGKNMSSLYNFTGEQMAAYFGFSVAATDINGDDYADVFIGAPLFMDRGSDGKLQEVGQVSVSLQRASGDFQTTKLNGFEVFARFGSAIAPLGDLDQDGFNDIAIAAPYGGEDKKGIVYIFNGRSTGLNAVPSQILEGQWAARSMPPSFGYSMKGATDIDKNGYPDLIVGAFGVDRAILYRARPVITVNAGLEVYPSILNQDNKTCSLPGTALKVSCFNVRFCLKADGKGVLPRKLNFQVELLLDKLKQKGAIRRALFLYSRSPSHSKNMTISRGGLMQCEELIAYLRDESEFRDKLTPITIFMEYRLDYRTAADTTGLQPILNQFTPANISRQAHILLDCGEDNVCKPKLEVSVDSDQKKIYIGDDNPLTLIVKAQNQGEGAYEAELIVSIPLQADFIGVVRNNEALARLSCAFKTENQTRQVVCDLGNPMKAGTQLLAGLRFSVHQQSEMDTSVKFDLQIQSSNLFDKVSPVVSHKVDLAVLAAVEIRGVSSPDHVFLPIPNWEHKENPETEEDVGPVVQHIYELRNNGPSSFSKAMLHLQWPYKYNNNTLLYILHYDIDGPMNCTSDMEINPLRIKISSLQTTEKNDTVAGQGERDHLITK
Sequence (P06756 891-1048 partner limits assumed): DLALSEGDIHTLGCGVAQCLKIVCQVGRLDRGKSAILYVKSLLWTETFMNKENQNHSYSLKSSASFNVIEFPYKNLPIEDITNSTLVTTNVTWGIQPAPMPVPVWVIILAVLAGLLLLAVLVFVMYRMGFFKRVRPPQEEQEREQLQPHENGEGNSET
Sequence (P05106 27-788): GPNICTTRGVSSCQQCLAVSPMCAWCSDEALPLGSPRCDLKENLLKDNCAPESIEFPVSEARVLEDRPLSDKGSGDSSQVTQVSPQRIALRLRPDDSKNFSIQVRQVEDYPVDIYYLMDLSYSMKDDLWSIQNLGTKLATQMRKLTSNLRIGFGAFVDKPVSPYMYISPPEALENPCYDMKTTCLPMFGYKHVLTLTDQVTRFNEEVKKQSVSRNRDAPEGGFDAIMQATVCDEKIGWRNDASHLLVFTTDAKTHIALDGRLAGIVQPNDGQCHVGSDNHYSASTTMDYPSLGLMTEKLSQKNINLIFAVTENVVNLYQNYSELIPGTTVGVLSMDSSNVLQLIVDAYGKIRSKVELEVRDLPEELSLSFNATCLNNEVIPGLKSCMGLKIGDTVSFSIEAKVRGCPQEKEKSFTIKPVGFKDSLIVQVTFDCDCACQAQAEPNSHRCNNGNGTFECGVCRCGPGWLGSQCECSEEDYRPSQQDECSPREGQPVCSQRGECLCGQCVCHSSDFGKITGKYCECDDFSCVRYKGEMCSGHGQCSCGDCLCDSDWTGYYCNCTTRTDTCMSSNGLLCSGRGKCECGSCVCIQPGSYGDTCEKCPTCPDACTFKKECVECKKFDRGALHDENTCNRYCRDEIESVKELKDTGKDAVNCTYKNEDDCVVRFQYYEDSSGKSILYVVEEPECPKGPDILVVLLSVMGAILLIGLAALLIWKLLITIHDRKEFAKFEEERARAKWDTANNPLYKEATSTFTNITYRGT
Test: Assay for the inhibition of αvβ3 integrin binding (vitronectin as ligand)
Design: purchased Chemicon International, Inc., USA
Settings: inhibition of specific binding of biotinylated human vitronectin to immobilized αvβ3 integrin
Experimental: Experiment 1: Assay for the Inhibition of αvβ3 integrin binding This experiment was carried out based on the method described in […]. […] The absorbance at 450 nm was measured with a plate reader (Molecular Devices, USA) to obtain a total binding. […] A specific binding was calculated by subtracting the nonspecific binding from the total binding.
Return type: number; implicit unit nM.

Past entries and their recorded results:
# compound, IC50 [nM]
records = [
    ("O=C(N[C@@H](CNC(=O)C1CCN(c2cccc(NC3=NCCN3)c2)CC1)C(=O)O)OCc1ccccc1", 0.059),
    ("CCCCOC(=O)N[C@@H](CNC(=O)C1CCN(c2cccc(NC3=NCCCN3)c2)CC1)C(=O)O", 0.1),
    ("CCCCCCCCCCOC(=O)N[C@@H](CCC(=O)N1CCN(c2cccc(NC3=NCC(F)CN3)c2)CC1)C(=O)O (stereo partly drawn)", 0.26),
]

Any idea what IC50 was measured for `CCCCCCCCCCOC(=O)N[C@@H](CCC(=O)N1CCN(c2cccc(NC3=NCC(C)(C)CN3)c2)CC1)C(=O)O` ?
1.7

Any idea what IC50 was measured for `CC1(C)CN=C(Nc2cccc(N3CCC(C(=O)NC[C@H](NC(=O)OCc4ccccc4)C(=O)O)CC3)c2)NC1` ?
0.14

Where these numbers come from: patent US7176199B2
